Sourced from the RepoRT retention time repository (doi:10.1021/acs.analchem.2c02893)

Provide the reported LC retention time of each item.
# Assay Name: RP, Thermo Scientific Acclaim RSLC 120 C18, 100 × 2.1 mm, 2.2 µm, 30 °C, 0.2 mL/min, estimated dead time 1.1 min; A: 90% water + 10% methanol + 0.01% formic acid + 5 mM ammonium formate, pH 3.61; B: methanol + 0.01% formic acid + 5 mM ammonium formate, pH 3.61; gradient (min/%B) 0/1 1/1 2/39 13/99.9 15/99.9 15.1/1 20.1/1
# Condition Details: stereoisomer not certain
# unit: min | format: bare number

## Task Give a short answer stating reported LC retention time for NC1CCc2cc3c(cc2C1)OCO3 (stereo unspecified) .
## Result 4.32

## Task Give a short answer stating reported LC retention time for CCCCOC(=O)N(C)SN(C)C(=O)Oc1cccc2c1OC(C)(C)C2 .
## Result 12.1

## Task Give a short answer stating reported LC retention time for CN(C)C(=O)Nc1ccc(-n2nc(C(C)(C)C)oc2=O)c(Cl)c1 .
## Result 8.76

## Task Give a short answer stating reported LC retention time for CCc1cc(OC)c(CC(C)N)cc1OC (stereo unspecified) .
## Result 6.88

## Task Give a short answer stating reported LC retention time for CN=C1CN(O)C(c2ccccc2)=c2cc(Cl)ccc2=N1 [Chlordiazepoxide] .
## Result 8.79

## Task Give a short answer stating reported LC retention time for O=C1OC(=O)c2ccccc21 .
## Result 9.58

## Task Give a short answer stating reported LC retention time for c1cc2c(c(NC3=NCCN3)c1)CCC2 .
## Result 4.76

## Task Give a short answer stating reported LC retention time for O=C(O)C1=CC=C2N=NN=C2C1 .
## Result 3.81

## Task Give a short answer stating reported LC retention time for Cc1cc(C)c(C2=C(OC(=O)CC(C)(C)C)C3(CCCC3)OC2=O)c(C)c1 .
## Result 12.8

## Task Give a short answer stating reported LC retention time for Cc1cc(=O)n(-c2ccccc2)n1C .
## Result 4.63

## Task Give a short answer stating reported LC retention time for CSc1nc(N)nc(NC(C)(C)C)n1 .
## Result 8.43

## Task Give a short answer stating reported LC retention time for CCSCCSP(=S)(OC)OC .
## Result 10.2

## Task Give a short answer stating reported LC retention time for CN(C)CCOc1ccccc1Cc1ccccc1 .
## Result 7.29

## Task Give a short answer stating reported LC retention time for COc1cc(CC(C)N)c(OC)cc1Cl (stereo unspecified) .
## Result 5.67

## Task Give a short answer stating reported LC retention time for CCOP(=S)(OCC)SCSC(C)(C)C .
## Result 12.2

## Task Give a short answer stating reported LC retention time for CC(N)C(O)c1ccccc1 (stereo unspecified) .
## Result 3.68

## Task Give a short answer stating reported LC retention time for CC(C(=O)O)c1ccc(CC(C)(C)O)cc1 (stereo unspecified) [Ibuprofen- 2-Hydroxy] .
## Result 7.08

## Task Give a short answer stating reported LC retention time for COc1cc(Cc2cnc(N)nc2N)cc(OC)c1OC .
## Result 4.06

## Task Give a short answer stating reported LC retention time for N=C(N)N1CCc2ccccc2C1 .
## Result 4.39

## Task Give a short answer stating reported LC retention time for CN(C)CC1CCCCC1(O)c1cccc(O)c1 (stereo unspecified) .
## Result 4.06

## Task Give a short answer stating reported LC retention time for CN1CCC(=C2c3ccccc3CCc3sccc32)CC1 .
## Result 7.86

###

Provide the reported LC retention time of each item.
# Assay Name: RP, Waters ACQUITY UPLC BEH C18, 100 × 2.1 mm, 1.7 µm, 30 °C, 0.35 mL/min, estimated dead time 0.63 min; A: water + 0.01% formic acid + 5 mM ammonium formate, pH 3.71; B: acetonitrile + 0.01% formic acid, pH 3.71; gradient (min/%B) 0/10 3/10 22/100 30/100 30.1/10 40/10
# Condition Details: stereoisomer not certain
# unit: min | format: bare number

## Task Give a short answer stating reported LC retention time for CCCCCc1cc(O)c2c(c1)OC(C)(C)C1CCC(C)=CC21 (stereo not given) [THC] .
## Result 19.6

## Task Give a short answer stating reported LC retention time for CCC(C)C1OC2(CCC1C)CC1CC(CC=C(C)C(OC3CC(OC)C(OC4CC(OC)C(O)C(C)O4)C(C)O3)C(C)C=CC=C3COC4C(O)C(C)=CC(C(=O)O1)C34O)O2 (stereo not given) [Ivermectin] .
## Result 21.1

## Task Give a short answer stating reported LC retention time for NC1Cc2cc3c(cc2C1)OCO3 [MDAI] .
## Result 2.34

## Task Give a short answer stating reported LC retention time for COC1C=COC2(C)Oc3c(C)c(O)c4c(O)c(c5c(nc6cc(C)ccn65)c4c3C2=O)NC(=O)C(C)=CC=CC(C)C(O)C(C)C(O)C(C)C(OC(C)=O)C1C (stereo not given) [Rifaximin] .
## Result 13

## Task Give a short answer stating reported LC retention time for NC(=O)c1cccnc1 [Nicotinamide] .
## Result 1.06

## Task Give a short answer stating reported LC retention time for CCNCC(=O)Nc1c(C)cccc1C [Lidocaine-Nor] .
## Result 3.59

## Task Give a short answer stating reported LC retention time for CC(C)NCC(O)COc1ccc(COCCOC(C)C)cc1 (stereo not given) [Bisoprolol] .
## Result 8.09

## Task Give a short answer stating reported LC retention time for Nc1nnc(-c2cccc(Cl)c2Cl)c(N)n1 [Lamotrigine] .
## Result 6.41

## Task Give a short answer stating reported LC retention time for Nc1nc(N)nc(NC2CC2)n1 [Cyromazine] .
## Result 1.06

## Task Give a short answer stating reported LC retention time for C1=CCC(c2cccnc2)NC1 (stereo not given) [Anatabine] .
## Result 1.08

###

# Assay Name: RP, Thermo Scientific Acclaim RSLC 120 C18, 100 × 2.1 mm, 2.2 µm, 30 °C, 0.2 mL/min, estimated dead time 1.1 min; A: 90% water + 10% methanol + 0.01% formic acid + 5 mM ammonium formate, pH 3.61; B: methanol + 0.01% formic acid + 5 mM ammonium formate, pH 3.61; gradient (min/%B) 0/1 1/1 2/39 13/99.9 15/99.9 15.1/1 20.1/1
# Condition Details: stereoisomer not certain
Rule: LC retention time under 8 min gives Not fulfilled, otherwise Fulfilled.

## Task Check this compound for LC retention time at or above 8 min: CC1(C)CON(Cc2ccccc2Cl)C1=O
## Result Fulfilled

## Task Check this compound for LC retention time at or above 8 min: CCCCCn1cc(C(=O)c2ccc(CC)c3ccccc23)c2ccccc21
## Result Fulfilled

## Task Check this compound for LC retention time at or above 8 min: O=C(NC(=O)c1c(F)cccc1F)Nc1cc(Cl)c(OC(F)(F)C(F)F)c(Cl)c1
## Result Fulfilled

## Task Check this compound for LC retention time at or above 8 min: CC(Cc1ccccc1)NCCC#N (centres undefined)
## Result Not fulfilled

## Task Check this compound for LC retention time at or above 8 min: CC(COc1ccccc1Cc1ccccc1)N1CCCCC1 (centres undefined)
## Result Fulfilled

## Task Check this compound for LC retention time at or above 8 min: CCCCCn1cc(C(=O)CC(C)(C)C(C)(C)O)c2ccccc21
## Result Fulfilled

## Task Check this compound for LC retention time at or above 8 min: Cc1cc(C(C)(C)C)c(O)c(C)c1CC1=NCCN1
## Result Not fulfilled

###

# Assay Name: RP, Thermo Scientific Acclaim RSLC 120 C18, 100 × 2.1 mm, 2.2 µm, 30 °C, 0.2 mL/min, estimated dead time 1.1 min; A: 90% water + 10% methanol + 0.01% formic acid + 5 mM ammonium formate, pH 3.61; B: methanol + 0.01% formic acid + 5 mM ammonium formate, pH 3.61; gradient (min/%B) 0/1 1/1 2/39 13/99.9 15/99.9 15.1/1 20.1/1
# Condition Details: stereoisomer not certain
One threshold, 8 min, splits the recorded LC retention time values: lower ones are yes, equal or higher ones are no.

## Task Please state whether LC retention time is below 8 min for CC(C)NCC(O)COc1ccc(COCCOC(C)C)cc1 (centres undefined)
## Result yes

## Task Please state whether LC retention time is below 8 min for Nc1c(Cl)c(F)nc(OCC(=O)O)c1Cl
## Result yes

## Task Please state whether LC retention time is below 8 min for CC(C)NC(=O)N1CC(=O)N(c2cc(Cl)cc(Cl)c2)C1=O
## Result no

## Task Please state whether LC retention time is below 8 min for CN1CC(=O)N2C(Cc3c([nH]c4ccccc34)C2c2ccc3c(c2)OCO3)C1=O (centres undefined)
## Result no

## Task Please state whether LC retention time is below 8 min for OCc1cc(C(O)CNCCCCCCOCCCCc2ccccc2)ccc1O (centres undefined)
## Result no

## Task Please state whether LC retention time is below 8 min for CC1(C)C(C(=O)c2cn(CCN3CCOCC3)c3ccccc23)C1(C)C
## Result no

## Task Please state whether LC retention time is below 8 min for COC(=O)COc1ccc(Cl)cc1C
## Result no

## Task Please state whether LC retention time is below 8 min for COc1nccnc1NS(=O)(=O)c1ccc(N)cc1
## Result yes

## Task Please state whether LC retention time is below 8 min for O=C(c1cccc2ccccc12)c1cn(CCN2CCOCC2)c2cccc(O)c12
## Result no
